The following are reported IC50 results, target or system Cyclin-dependent kinase 5/CDK5 activator 1 (Homo sapiens, UniProt Q00535).

Examples from the recorded data:
Cn1cc2cc(/C=C3\N=C(NC4CCCCCC4)NC3=O)ccc2n1    > 10 µM
Cn1ccc2cc(/C=C3\N=C(NC4CCCCC4)NC3=O)ccc21    > 10 µM
CNCC(NC1=N/C(=C\c2ccc3ncsc3c2)C(=O)N1)c1ccccc1 (racemic)    2.01 µM
COC(=O)[C@@H](NC1=N/C(=C\c2ccc3ncsc3c2)C(=O)N1)C(C)C    > 10 µM
Cc1ccc(CNC2=N/C(=C\c3ccc4ncsc4c3)C(=O)N2)c(C)c1    > 10 µM

Test item O=C1NC(NC2CCCCCC2)=N/C1=C\c1ccc2ncoc2c1 ; Cyclin-dependent kinase 5/CDK5 activator 1 (Homo sapiens, UniProt Q00535); reported IC50 was > 10 µM
